target: human HER3 endogenously expressed on human cancer cells (SK-Br-3, BT-474, MCF7) (human, UniProt P21860 20-1342); experiment: cell-based or functional assay
assayReadout: BT-474 proliferation % inhibition (%)
Just the number in %, nothing appended.

Below: 3 binders and their reported BT-474 proliferation % inhibition.
1) MOR13666 (antibody, human IgG1, lambda, V domains shown, Tested as IgG) VH: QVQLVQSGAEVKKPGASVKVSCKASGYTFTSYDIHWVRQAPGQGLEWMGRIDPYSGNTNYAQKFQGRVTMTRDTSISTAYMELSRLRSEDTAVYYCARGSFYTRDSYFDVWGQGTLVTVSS VL: DIALTQPASVSGSPGQSITISCTGTSSDVGTYNQVSWYQQHPGKAPKLMIYGVSKRPSGVSNRFSGSKSGNTASLTISGLQAEDEADYYCSTTTYSFHMVFGGGTKLTVLG: 31
2) MOR13654 (antibody, human IgG1, lambda, V domains shown, Tested as IgG) VH: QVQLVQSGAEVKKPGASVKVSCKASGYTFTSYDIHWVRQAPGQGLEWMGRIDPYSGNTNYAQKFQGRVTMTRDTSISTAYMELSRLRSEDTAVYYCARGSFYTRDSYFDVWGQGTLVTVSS VL: DIALTQPASVSGSPGQSITISCTGTSSDVGTYNQVSWYQQHPGKAPKLMIYGVSKRPSGVSNRFSGSKSGNTASLTISGLQAEDEADYYCQSRGEYRPGWVFGGGTKLTVLG: 27
3) MOR13655 (antibody, human IgG1, lambda, V domains shown, Tested as IgG) VH: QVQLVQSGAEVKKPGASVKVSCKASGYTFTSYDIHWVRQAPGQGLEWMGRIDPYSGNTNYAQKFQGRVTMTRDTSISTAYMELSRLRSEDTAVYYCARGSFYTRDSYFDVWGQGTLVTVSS VL: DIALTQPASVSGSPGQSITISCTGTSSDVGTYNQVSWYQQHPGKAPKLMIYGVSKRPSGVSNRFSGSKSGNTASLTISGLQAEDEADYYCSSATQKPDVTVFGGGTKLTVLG: 31

Q) // lookup BT-474 proliferation % inhibition for MOR13658 (antibody, human IgG1, lambda, V domains shown, Tested as IgG) VH: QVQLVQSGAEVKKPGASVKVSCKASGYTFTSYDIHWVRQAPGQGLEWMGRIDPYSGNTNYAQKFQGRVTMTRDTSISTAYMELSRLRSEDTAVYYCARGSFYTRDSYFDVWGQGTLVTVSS VL: DIALTQPASVSGSPGQSITISCTGTSSDVGTYNQVSWYQQHPGKAPKLMIYGVSKRPSGVSNRFSGSKSGNTASLTISGLQAEDEADYYCASADHSYHTVFGGGTKLTVLG
A) 34

Q) Given the entry MOR12603 (antibody, human IgG1, kappa, V domains shown, Tested as IgG) VH: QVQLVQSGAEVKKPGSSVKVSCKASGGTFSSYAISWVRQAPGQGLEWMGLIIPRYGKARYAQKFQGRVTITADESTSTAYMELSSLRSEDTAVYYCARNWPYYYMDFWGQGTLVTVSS VL: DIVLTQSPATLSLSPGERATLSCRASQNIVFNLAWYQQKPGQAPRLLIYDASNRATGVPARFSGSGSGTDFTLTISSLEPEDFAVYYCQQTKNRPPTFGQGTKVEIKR , report its measured BT-474 proliferation % inhibition.
A) 37
